# merged literature set: pIC50 with human 20 S proteasome (Homo sapiens, UniProt P28074)
pIC50: −log10 of the molar value.

Example compounds with recorded pIC50:
Note to self: pIC50 of O=C(COc1ncc(Cl)cc1Cl)N[C@@H](Cc1ccccc1)B(O)O with human 20 S proteasome (Homo sapiens, UniProt P28074) was 6.30 to 7.30

Note to self: pIC50 of COc1ccc(OC)c(CC(=O)N[C@@H](Cc2coc3ccccc23)B(O)O)c1 with human 20 S proteasome (Homo sapiens, UniProt P28074) was 6.30 to 7.30

Note to self: pIC50 of Cc1ccc(C[C@H](NC(=O)Cc2ccc(N(C)C)cc2)B(O)O)c(C)c1 with human 20 S proteasome (Homo sapiens, UniProt P28074) was < 5.30

Others:
Note to self: pIC50 of COc1ccc(CC(=O)N[C@@H](C[C@H]2COc3c(C)cccc32)B(O)O)cc1 with human 20 S proteasome (Homo sapiens, UniProt P28074) was < 5.30

Note to self: pIC50 of O=C(CCc1ccc(F)cc1)N[C@@H](Cc1coc2ccccc12)B(O)O with human 20 S proteasome (Homo sapiens, UniProt P28074) was > 7.30

Note to self: pIC50 of O=C(Cc1c(Cl)cccc1Cl)N[C@@H](Cc1coc2ccccc12)B(O)O with human 20 S proteasome (Homo sapiens, UniProt P28074) was 5.30 to 6.30

Note to self: pIC50 of O=C(CCn1cc(-c2ccccc2)nn1)N[C@@H](Cc1ccsc1)B(O)O with human 20 S proteasome (Homo sapiens, UniProt P28074) was 6.30 to 7.30

Note to self: pIC50 of COc1ccc(C(=O)CCC(=O)N[C@@H](Cc2ccc(OC(F)(F)F)cc2)B(O)O)cc1 with human 20 S proteasome (Homo sapiens, UniProt P28074) was 5.30 to 6.30

Note to self: pIC50 of O=C(CCC1CCCCC1)N[C@@H](Cc1coc2ccccc12)B(O)O with human 20 S proteasome (Homo sapiens, UniProt P28074) was 6.30 to 7.30

Note to self: pIC50 of CCc1cccc(C[C@H](NC(=O)[C@H](CC(=O)c2ccccc2)c2cccc(Cl)c2)B(O)O)c1 (single isomer, unassigned) with human 20 S proteasome (Homo sapiens, UniProt P28074) was 5.30 to 6.30

Note to self: pIC50 of COc1ccc(-n2cc(CCC(=O)N[C@@H](Cc3coc4ccccc34)B(O)O)nn2)cc1 with human 20 S proteasome (Homo sapiens, UniProt P28074) was > 7.30

Note to self: pIC50 of COc1ccc(C[C@H](NC(=O)[C@H](C)NC(=O)CN2CCOCC2)C(=O)N[C@@H](CC2CCCC2)C(=O)[C@H]2CO2)cc1 with human 20 S proteasome (Homo sapiens, UniProt P28074) was 6.70

Note to self: pIC50 of Cc1cccc2c(C[C@H](NC(=O)[C@H](CO)c3ccccc3)B(O)O)coc12 with human 20 S proteasome (Homo sapiens, UniProt P28074) was 5.30 to 6.30

Note to self: pIC50 of O=C(Cc1ccccc1)N[C@@H](Cc1c(Cl)oc2ccccc12)B(O)O with human 20 S proteasome (Homo sapiens, UniProt P28074) was < 5.30

Note to self: pIC50 of O=C(N[C@@H](Cc1ccccc1)C(=O)N[C@@H](CC1CCC1)B(O)O)c1cccnc1Nc1cccc(C(F)(F)F)c1 with human 20 S proteasome (Homo sapiens, UniProt P28074) was > 7.30

Note to self: pIC50 of COc1ccc(C[C@H](NC(=O)[C@H](C)NC(=O)CN2CCOCC2)C(=O)N[C@@H](CC2=CCCC2)C(=O)[C@@]2(C)CO2)cc1 with human 20 S proteasome (Homo sapiens, UniProt P28074) was 6.45
